# tested-target: human telomeric sequence 24TTG
# method-summary: Native electrospray mass spectrometry, 24TTG
# Assay type: binding
# test-settings: second binding event (2:1 complex); 10 µM DNA, 20 µM ligand; read-out: Kd2 24TTG
assay-metric: Kd (µM)
Give bare numbers, in µM.

compound | result-units | Kd
CN(C)CCCNCc1ccc(-c2cc(-c3ccc(CNCCCN(C)C)cc3)c3cc(-c4ccccc4)ccc3n2)cc1 [Compound 13a] | µM | 7.1

Can you give me Kd for all of these, one by one?
1. CN(C)CCCNCc1ccc(-c2nc(-c3ccc(CNCCCN(C)C)cc3)c3cc(-c4ccccc4)ccc3n2)cc1 [Compound 12b]
2. CN1CCN(CCCCNCc2ccc(-c3cc(-c4ccc(CNCCCCN5CCN(C)CC5)cc4)c4cc(-c5ccccc5)ccc4n3)cc2)CC1 [Compound 13d]
3. CN1CCN(CCCCNCc2ccc(-c3nc(-c4ccc(CNCCCCN5CCN(C)CC5)cc4)c4cc(-c5ccccc5)ccc4n3)cc2)CC1 [Compound 12e]

1.5
83
1.9

====

# Test system: HeLa
# method-summary: MTT antiproliferative assay, HeLa
# Type: cell-based, human
# test-settings: IC50 HEK293 / IC50 HeLa
assay-metric: Selectivity Index HEK293/HeLa

Look over these answered cases.
compound | Selectivity Index HEK293/HeLa
CN(C)CCCNCc1ccc(-c2nc(-c3ccc(CNCCCN(C)C)cc3)c3ccc(-c4ccccc4)cc3n2)cc1 [Compound 12f] | >19.9
CN(C)CCCNCc1ccc(-c2nc(-c3ccc(CNCCCN(C)C)cc3)c3cc(-c4ccccc4)ccc3n2)cc1 [Compound 12b] | >36.6
CN(C)CCCNCc1ccc(-c2cc(-c3ccc(CNCCCN(C)C)cc3)c3cc(-c4ccccc4)ccc3n2)cc1 [Compound 13a] | >60.0
CN1CCN(CCCNCc2ccc(-c3nc(-c4ccc(CNCCCN5CCN(C)CC5)cc4)c4ccc(-c5ccccc5)cc4n3)cc2)CC1 [Compound 12i] | >26.1
CN(C)CCCCNCc1ccc(-c2nc(-c3ccc(CNCCCCN(C)C)cc3)c3ccc(-c4ccccc4)cc3n2)cc1 [Compound 12g] | 4.19

What Selectivity Index HEK293/HeLa value was documented for this compound, CN1CCN(CCCCNCc2ccc(-c3nc(-c4ccc(CNCCCCN5CCN(C)CC5)cc4)c4ccc(-c5ccccc5)cc4n3)cc2)CC1 [Compound 12j] ?
3.31

====

For each entry below, report its IC50 value.
# Tested on: K562
# method-summary: MTS cell proliferation assay, K562
# Type: cell-based, human
# test-settings: Homo sapiens, K562, 72 h; MTS, 3-day incubation, leukemia cells; read-out: IC50 Values (μM) ± SEM K562
# Method: The human leukemic cell line K562 was grown in RPMI 1640 medium (Life Technology-Invitrogen by Thermo Fisher Scientific, Saint-Aubin, France) supplemented with 10% fetal calf serum (FCS), antibiotics (100 U/mL penicillin, 100 µg/mL streptomycin), and L-glutamine, (Eurobio, Les Ulis, France) at 37 °C, 5% CO2 in air. […] After 3 h of incubation at 37 °C with 20 μL MTS/well, the plates were read using an ELISA microplate reader (Thermo, Electrocorporation, Waltham, MA, USA) at 490 nm. […]
Numbers only, in µM.

compound | IC50 [µM]
CN(C)CCCNCc1ccc(-c2nc(-c3ccc(CNCCCN(C)C)cc3)c3cc(-c4ccccc4)ccc3n2)cc1 [Compound 12b] | 14
CN(C)CCCNCc1ccc(-c2cc(-c3ccc(CNCCCN(C)C)cc3)c3cc(-c4ccccc4)ccc3n2)cc1 [Compound 13a] | 10
CN(C)CCCCNCc1ccc(-c2nc(-c3ccc(CNCCCCN(C)C)cc3)c3cccc(-c4ccccc4)c3n2)cc1 [Compound 12l] | 7
CN(C)CCCCCNCc1ccc(-c2nc(-c3ccc(CNCCCCCN(C)C)cc3)c3ccc(-c4ccccc4)cc3n2)cc1 [Compound 12h] | 13
CN(C)CCCCNCc1ccc(-c2cc(-c3ccc(CNCCCCN(C)C)cc3)c3cc(-c4ccccc4)ccc3n2)cc1 [Compound 13b] | 13

Can you give me IC50 for all of these, one by one?
1. CN(C)CCCCNCc1ccc(-c2nc(-c3ccc(CNCCCCN(C)C)cc3)c3cc(-c4ccccc4)ccc3n2)cc1 [Compound 12c]
2. CN1CCN(CCCCNCc2ccc(-c3nc(-c4ccc(CNCCCCN5CCN(C)CC5)cc4)c4cc(-c5ccccc5)ccc4n3)cc2)CC1 [Compound 12e]

1. 7
2. 13

Values were extracted from paper PMC10819771.
